- Tested on: Saccharomyces cerevisiae;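 note: PSI is a weighted mean of sequencing reads over stability bins, variants kept only with over 10 reads, mCherry proximal and sfGFP distal, peptide attached via GGGS linker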
- protocol details: protein stability index of tFT-peptide fusion (C-terminal peptide) (PSI (0-1 scale)); higher = more stable (slower turnover)
- setup conditions: genetic background: wild type; temperature: 30 C
Each entry gets -1 if its protein stability index stays under 0.7, and 1 if its protein stability index is 0.7 or above.

1. VCLRICLVTLMM
-1
2. FVFGECRGWALV
1
3. AKLQQEIVWALD
1
4. RMKKYKYELDLN
-1
5. GPFPMRRTFRFA
-1
6. RMINRLEKKHTK
1
7. FAEWVRFWPGLV
-1
8. GPRRARLPNFLA
-1
9. PPPSHLGSLDPL
-1
10. MQLPSHFEAWTS
1
